# test.target: F protein of human metapneumovirus strain JPS05-21 (type B2), on infectious virus (human metapneumovirus, strain JPS05-21 …)
# assay: cell-based or functional assay
value.kind: IC50, neutralizing activity (hMPV infection of LLC-MK2 cells; GraphPad Prism 6) (µg/mL)
Numbers only, in µg/mL.

binder	measured
EV046147 (antibody, human IgG1, lambda, V domains shown) VH: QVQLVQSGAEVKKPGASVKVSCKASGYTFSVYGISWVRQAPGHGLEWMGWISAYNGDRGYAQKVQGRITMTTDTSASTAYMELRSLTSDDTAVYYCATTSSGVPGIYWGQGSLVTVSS VL: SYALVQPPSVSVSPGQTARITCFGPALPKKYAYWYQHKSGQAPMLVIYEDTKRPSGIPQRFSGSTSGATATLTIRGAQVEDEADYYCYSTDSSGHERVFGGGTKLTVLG	0.253

Q) Annotate the binder EV046120 (antibody, human IgG1, lambda, V domains shown) VH: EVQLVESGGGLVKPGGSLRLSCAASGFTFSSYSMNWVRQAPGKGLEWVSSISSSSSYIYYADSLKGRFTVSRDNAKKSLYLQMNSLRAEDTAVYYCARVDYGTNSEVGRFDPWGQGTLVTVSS VL: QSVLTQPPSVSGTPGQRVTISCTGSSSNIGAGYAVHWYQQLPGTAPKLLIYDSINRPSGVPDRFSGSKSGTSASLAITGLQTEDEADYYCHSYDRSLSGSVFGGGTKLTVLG with its measured IC50, neutralizing activity (hMPV infection of LLC-MK2 cells; GraphPad Prism 6).
A) 0.249

Numbers sourced from patent US20150322137A1.
